Measured values drawn from patent US9562031B1 for this set.

system: NCI-H460 (large cell lung carcinoma) cells; assay: antiproliferation assay (72 h, CELLTITER 96), NCI-H460; assay type: cell-based, human; conditions: Homo sapiens, NCI-H460, Table 4; read-out: NCI-H460 IC50
pIC50: −log10 of the molar value.
Documented pIC50 across a set of compounds
measured-quantity: pIC50

| compound | measured-target | val |
| --- | --- | --- |
| C=CC[C@H]1C[C@]2([C@H](C)Cc3ccc(OC)c(CO)c3)OCOC2=CC1=O [Compound 28] | NCI-H460 (large cell lung carcinoma) cells | 5.38 |
| C=CC[C@H]1C[C@]2([C@H](C)Cc3ccc(OC)c(OC)c3)OCOC2=CC1=O [Compound 24] | NCI-H460 (large cell lung carcinoma) cells | 6.49 |
| C=CC[C@H]1C[C@]2(C(C)Cc3ccc(OC)c(N)c3)OCOC2=CC1=O (some centres unmarked) [Compound 34] | NCI-H460 (large cell lung carcinoma) cells | 6.74 |
| C=CC[C@H]1C[C@]2([C@@H](C)Cc3ccc(OC)c(C(N)=O)c3)OCOC2=CC1=O [Compound 29] | NCI-H460 (large cell lung carcinoma) cells | 7.18 |
| C=CC[C@H]1C[C@]2([C@@H](C)Cc3ccc(OC)c(C#N)c3)OCOC2=CC1=O [Compound 31] | NCI-H460 (large cell lung carcinoma) cells | 6.47 |
| C=CC[C@H]1C[C@]2([C@@H](C)Cc3ccc(OC)c(NC(C)=O)c3)OCOC2=CC1=O [Compound 35] | NCI-H460 (large cell lung carcinoma) cells | 6.51 |
| C=CC[C@H]1C[C@]2([C@@H](C)Cc3ccc(OC)c(O)c3)OCOC2=CC1=O [Compound 32] | NCI-H460 (large cell lung carcinoma) cells | 7.08 |
| C=CC[C@H]1C[C@]2([C@@H](C)Cc3ccc(OC)c(F)c3)OCOC2=CC1=O [Compound 37] | NCI-H460 (large cell lung carcinoma) cells | 7.07 |

---

system: HCT-15 cells; experiment: NCI-60 panel antiproliferation, HCT-15; assay type: cell-based, human; details: NCI 60-cell panel
measured-quantity: IC50 (nM)

| structure-as-smiles | measured-quantity | measurement-unit | val |
| --- | --- | --- | --- |
| C=CC[C@H]1C[C@]2([C@@H](C)Cc3ccc(OC)c(OC)c3)OCOC2=CC1=O | IC50 | nM | 230 |

---

Test system: M14 cells
Assay: NCI-60 panel antiproliferation, M14
Assay type: cell-based, human
Settings: Homo sapiens, NCI 60-cell panel
Description: Bifidenone and Compound 37 were tested for antiproliferation activity against the NCI-60 panel of cancer cell lines. […]
pIC50: −log10 of the molar value.
measured-quantity: pIC50

| molecule | val |
| --- | --- |
| C=CC[C@H]1C[C@]2([C@@H](C)Cc3ccc(OC)c(F)c3)OCOC2=CC1=O [Compound 37] | 7.23 |

---

test system: EKVX cells; test: antiproliferation assay, paclitaxel-resistant EKVX; assay type: cell-based; conditions: Homo sapiens

| compound | measurement-unit | IC50 |
| --- | --- | --- |
| C=CC[C@H]1C[C@]2([C@H](C)Cc3cc(O)c(OC)cc3F)OCOC2=CC1=O (relative stereo) | nM | 7 |
| CC(=O)O[C@H]1C(=O)[C@@]2(C)[C@H]([C@H](OC(=O)c3ccccc3)[C@]3(O)C[C@H](OC(=O)[C@H](O)[C@@H](NC(=O)c4ccccc4)c4ccccc4)C(C)=C1C3(C)C)[C@]1(OC(C)=O)CO[C@@H]1C[C@@H]2O [paclitaxel, reference compound] | nM | 150 |

---

tested on: NCI-H322M cells; experiment: NCI-60 panel antiproliferation, NCI-H322M; type: cell-based, human; settings: NCI 60-cell panel
pIC50: −log10 of the molar value.

| compound | pIC50 |
| --- | --- |
| C=CC[C@H]1C[C@]2([C@@H](C)Cc3ccc(OC)c(OC)c3)OCOC2=CC1=O [bifidenone, Bifidenone] | 6.34 |

---

tested on: HOP-92 cells; assay: NCI-60 panel antiproliferation, HOP-92; type: cell-based, human; conditions: Homo sapiens, NCI 60-cell panel

| molecule | IC50 |
| --- | --- |
| C=CC[C@H]1C[C@]2([C@@H](C)Cc3ccc(OC)c(F)c3)OCOC2=CC1=O [Compound 37] | > 10 µM |

---

System: NCI-H460 (large cell lung carcinoma) cells
Assay: antiproliferation assay (72 h, CELLTITER 96), NCI-H460
Assay type: cell-based, human
Details: Homo sapiens, NCI-H460, as quoted in the pharmacokinetics text; read-out: IC50 against NCI-H460 human lung cancer cells
Experimental: All of the compounds shown in Table 3-Table 8 below were prepared synthetically as described in EXAMPLE I. The compounds were tested for their ability to inhibit the proliferation of human cancer cells in vitro as described in the following paragraph. Table 3-Table 8 list the IC50 values in the M14 and NCI-H460 human cancer cell lines. IC50 is defined as the concentration of compound necessary to achieve 50% of the maximum growth inhibition. […]
pIC50: −log10 of the molar value.
measured-quantity: pIC50

| compound | measured-quantity | val |
| --- | --- | --- |
| C=CC[C@H]1C[C@]2([C@H](C)Cc3cc(O)c(OC)cc3F)OCOC2=CC1=O (relative stereo) | pIC50 | 7.82 |
| C=CC[C@H]1C[C@]2([C@@H](C)Cc3ccc(OC)cc3F)OCOC2=CC1=O (relative stereo) | pIC50 | 7.05 |

---

system: MDA-MB-468 cells; test: NCI-60 panel antiproliferation, MDA-MB-468; type: cell-based, human; settings: Homo sapiens, NCI 60-cell panel

| structure-as-smiles | IC50 |
| --- | --- |
| C=CC[C@H]1C[C@]2([C@@H](C)Cc3ccc(OC)c(F)c3)OCOC2=CC1=O | 59 nM |

---

Test system: MDA-MB-435 cells
Test: NCI-60 panel antiproliferation, MDA-MB-435
Assay type: cell-based, human
Details: Homo sapiens, NCI 60-cell panel
Description: Bifidenone and Compound 37 were tested for antiproliferation activity against the NCI-60 panel of cancer cell lines. […]
pIC50: −log10 of the molar value.

| structure-as-smiles | measured-target | pIC50 |
| --- | --- | --- |
| C=CC[C@H]1C[C@]2([C@@H](C)Cc3ccc(OC)c(F)c3)OCOC2=CC1=O | MDA-MB-435 cells | 7.55 |

---

tested on: NCI-H23 cells; test: NCI-60 panel antiproliferation, NCI-H23; format: cell-based, human; settings: NCI 60-cell panel
pIC50: −log10 of the molar value.

| structure-as-smiles | pIC50 |
| --- | --- |
| C=CC[C@H]1C[C@]2([C@@H](C)Cc3ccc(OC)c(OC)c3)OCOC2=CC1=O | 6.21 |

---

tested on: HOP-62 cells; test: NCI-60 panel antiproliferation, HOP-62; assay type: cell-based, human; details: Homo sapiens, NCI 60-cell panel

| compound | measured-target | IC50 [nM] |
| --- | --- | --- |
| C=CC[C@H]1C[C@]2([C@@H](C)Cc3ccc(OC)c(F)c3)OCOC2=CC1=O [Compound 37] | HOP-62 cells | 102 |

---

tested on: OVCAR-3 cells; test: antiproliferation assay, OVCAR-3; format: cell-based; conditions: Homo sapiens
measured-quantity: IC50 (nM)

| compound | measured-quantity | val |
| --- | --- | --- |
| C=CC[C@H]1C[C@]2([C@@H](C)Cc3ccc(OC)cc3F)OCOC2=CC1=O (relative stereo) [Compound 2] | IC50 | 60 |
| C=CC[C@H]1C[C@]2([C@H](C)Cc3cc(O)c(OC)cc3F)OCOC2=CC1=O (relative stereo) [Compound 4] | IC50 | 12 |
| C=CC[C@H]1C[C@]2([C@@H](C)Cc3ccc(OC)c(C(N)=O)c3)OCOC2=CC1=O [Compound 29] | IC50 | 57 |
| C=CC[C@H]1C[C@]2([C@H](C)Cc3cc(F)c(OC)cc3F)OCOC2=CC1=O (relative stereo) [Compound 6] | IC50 | 38 |

---

tested on: U251 cells; experiment: NCI-60 panel antiproliferation, U251; type: cell-based, human; settings: Homo sapiens, U-251, NCI 60-cell panel
measured-quantity: IC50

| structure-as-smiles | val |
| --- | --- |
| C=CC[C@H]1C[C@]2([C@@H](C)Cc3ccc(OC)c(F)c3)OCOC2=CC1=O | 123 nM |

---

tested on: NCI-H460 (large cell lung carcinoma) cells; experiment: antiproliferation assay (72 h, CELLTITER 96), NCI-H460; format: cell-based, human; conditions: Homo sapiens, NCI-H460, Table 4; read-out: NCI-H460 IC50

| compound | IC50 |
| --- | --- |
| C=CC[C@H]1C[C@]2([C@@H](C)Cc3ccc(OC)c(Cl)c3)OCOC2=CC1=O | 640 nM |
| C=CC[C@H]1C[C@]2([C@@H](C)Cc3ccc(OC)c(C)c3)OCOC2=CC1=O | 630 nM |
| C=CC[C@H]1C[C@]2([C@@H](C)Cc3ccc(OC)cc3)OCOC2=CC1=O | 88 nM |
| C=CC[C@H]1C[C@]2([C@@H](C)Cc3ccc(OC)c(OC(=O)N(C)C)c3)OCOC2=CC1=O | > 20000 nM |
| C=CCC1C[C@]2([C@@H](C)Cc3ccc(OC)c(C(C)=O)c3)OCOC2=CC1=O (some centres unmarked) | > 20000 nM |
| C=CC[C@H]1C[C@]2([C@H](C)Cc3ccc(OC)c(N(C)C)c3)OCOC2=CC1=O | > 20000 nM |
| C=CC[C@H]1C[C@]2([C@H](C)Cc3ccc(OC)cc3)OCOC2=CC1=O | 75 nM |
| C=CCNc1cc(CC(C)[C@]23C[C@H](CC=C)C(=O)C=C2OCO3)ccc1OC (some centres unmarked) | 1900 nM |
| C=CC[C@H]1C[C@]2([C@@H](C)Cc3ccc(OC)c(C(=O)NC)c3)OCOC2=CC1=O | 1100 nM |
| C=CC[C@H]1C[C@]2([C@H](C)Cc3ccc(OC)c(Cl)c3)OCOC2=CC1=O | 420 nM |
| C=CC[C@H]1C[C@]2(C(C)Cc3ccc(OC)c(OC(C)=O)c3)OCOC2=CC1=O (some centres unmarked) | 110 nM |
